Assay method text: potentiators of TNFa-induced VCAM1 expression, confirmation, imaging, HUVEC, triplicate retest (AID 1034);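 also: scaled per plate between unstimulated and TNFa-stimulated DMSO control wells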
Test conditions: HUVEC TNFa-stimulated VCAM-1 immunofluorescence imaging; at 2 µM; active compounds read high
Some of the results follow.
Assay endpoint: activation (%)
Write it as a number; the unit % goes unstated.

Example results:
Cc1cccc2cc(CN(Cc3ccc4c(c3)OCO4)Cc3nnnn3C3CCCC3)c(=O)[nH]c12 :: 4.1
CCOc1ccc(N=C2NC(=O)S/C2=C\c2ccc(O)cc2)cc1 :: -20.4
CC1(C)CC(=O)C=C(N2CCCC2)C1 :: -17.7
CCOc1cc(-c2cc(-c3ccc(OC)cc3)nc(N)c2C#N)ccc1O :: -5.2

# input for lookup
Input: Would you kindly share the measured activation for COCCNS(=O)(=O)c1cc(Br)ccc1OC ?
Output: -14.1

----------
activation reference
Assay method text: potentiators of TNFa-induced VCAM1 expression, confirmation, imaging, HUVEC, triplicate retest (AID 1034);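 also: scaled per plate between unstimulated and TNFa-stimulated DMSO control wells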
Test conditions: HUVEC TNFa-stimulated VCAM-1 immunofluorescence imaging; at 2 µM; active compounds read high
The list shows a part of the results.
Hi! Could you send only the number? It should be in %, unit omitted.

Use the examples below as a reference point.
O=C(Nc1ccncc1)c1c(F)cccc1F :: -14.6
CCCCN(C)C(=O)C1CCN(Cc2ccccn2)CC1 :: -13
COc1ccc(OC)c(N=Cc2c(O)[nH]c3ccccc23)c1 :: -13.9
CC(=O)c1cnn(-c2cc(Oc3ccc(F)cc3)ncn2)c1C :: -14.8
CC1=NN(C(C)C)C(=O)C1 :: -8.4

Here's the next entry for you.
Input: Which activation is reported for this compound? CCN(CC(=O)Nc1ccc2c(c1)OCCO2)Cc1cc(=O)oc2cc(C)c(C)cc12
Output: -6.7
